# key: entry, value: growth inhibition
Assay: NCI Yeast Anticancer Drug Screen. Data for the rad50 strain (AID 155);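 further: 0% = growth of vehicle-only cultures of the same strain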
Conditions: S. cerevisiae rad50 strain growth inhibition; at 11.0 µM; stronger effect = higher value
Description: Growth inhibition of yeast strains with defined genetic alterations is measured as a screen for potential anti-cancer activity. Selected strains with alterations in DNA damage repair or cell cycle control were exposed to compounds and growth inhibition was measured relative to vehicle treated controls. The strain used in this assay is rad50
Compounds without any hit were thinned out: in the full panel of roughly 79,000, 15% have a hit.

molecule	growth inhibition / %
CCCCCCCCN1COCC(COc2ccccc2C)OC1 (stereo not drawn)	3
COc1ccc2c(c1)CCCC(Br)C2=O (stereo not drawn)	31
Oc1ccc(N=Nc2ccc(Cl)cc2)cc1	94
C[C@H](CCC1=NC(C)(C)CO1)C1CCC2[C@@H]3C(O)C[C@@H]4CC(O)CC[C@]4(C)C3CC[C@@]21C (stereo partly drawn)	-8
O=C(CN(c1ccccc1)c1ccccc1)n1nnc2ccccc21	14
CCN(CC)CCNc1ccc(C)c2sc3ccc(O)cc3c(=O)c12	96
Cc1c2cc[n+](CCO)cc2c(C)c2c1[nH]c1ccc(O)cc12	89
CC(=O)/C=C/c1cc([N+](=O)[O-])ccc1O	-5
O=S(=O)(c1cccc(C(F)(F)F)c1)N1c2ccccc2-n2cccc2C1c1cccnc1 (stereo not drawn)	85
S=C1N(c2ccc(Cl)cc2)C2=C(N=Nc3ccccc3)C(=Nc3ccccc3S2)N1c1ccccn1	42
CCO/C=C1\SC(=S)N(c2ccc(OCC)cc2)C1=O	-3
CN1C(=O)C(CC(=O)O)NC1=S (stereo not drawn)	2
O=[N+]([O-])c1cccc2nc3ccccc3c(NCCCN3CCCCC3)c12	94
Cc1cccc(C)c1NC(=O)CCC(=O)C(C)C(=O)c1ccc(O)cc1 (stereo not drawn)	1
C[n+]1c(/C=C/c2ccc(/C=N/NC(=O)c3ccc(C(=O)N/N=C/c4ccc(/C=C/c5cn6ccccc6[n+]5C)cc4)cc3)cc2)cn2ccccc21	97
OC(Cc1cccc2ccccc12)CN1CCC(c2ccccc2)CC1 (stereo not drawn)	66
CC(C)OC(=O)NNc1cc(Cl)ccc1Cl	41
S=C1C(=Nc2ccccc2)N(c2ccccc2)/C(=N\c2ccccn2)N1c1ccccc1	46
CC(C)OP(=O)(OC(C)C)/C(Cl)=N/Nc1ccc([N+](=O)[O-])cc1	61
Cc1ccc(S(=O)(=O)Nc2cccc3cccnc23)cc1	22
O=C(c1cc(=O)c2ccc(O)cc2o1)c1ccc(Cl)cc1Cl	12
Cc1ccnc2c(O)cccc12	98
CC1=CC(C)(C)SC(SSSC2=NC(C)=CC(C)(C)S2)=N1	-4
COc1ccc2nc3cccc([N+](=O)[O-])c3c(NCCCCCC(=O)O)c2c1	96
C/C(=N\Sc1ccccc1)c1ccccc1O	7
CC1(C2CC2)C(C#N)(C#N)C1(C#N)C#N	25
CC(C)NCCCNc1c2ccccc2nc2cccc([N+](=O)[O-])c12	95
CC(=O)Oc1ccc2c(c1)Cc1cc(N3C(=O)C=CC3=O)ccc1-2	83
CN(N=O)C(=O)Nc1ccc(C(=O)O)cc1	19
Cc1c(Cl)c(C)c(Cl)c(O)c1Cl	-8
CCCCCCCN(CCCCCCC)CC(=O)c1ccc2cc(Cl)c3ccccc3c2c1	98
Cc1nc2sc3c(c2c(=O)o1)CCCC3	-11
Cc1cc(C)c(S(=O)(=O)c2ccc(Cl)cc2)c(C)c1	6
CCOC(=S)SSSC(=S)OCC	76
CCC[CH2][Ge]([CH2]CCC)([CH2]CCC)[O]C(=O)C(O)c1ccccc1 (stereo not drawn)	36
COc1ccc(C(C)c2cc3c(cc2OC(C)O)OCO3)cc1 (stereo not drawn)	26
CC(C)N(CCCNc1c2ccccc2nc2cccc([N+](=O)[O-])c12)C(C)C	92
CC1CCN(CCC(=O)c2ccc([N+](=O)[O-])cc2)CC1	15

* * *

Assay: NCI Yeast Anticancer Drug Screen. Data for the mlh1 strain (AID 171);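 further: 0% = growth of vehicle-treated control cultures of the same strain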
Settings: S. cerevisiae mlh1 strain growth inhibition; at 3.7 µM; stronger effect = higher value
Compounds without any hit were thinned out: in the full panel of roughly 79,000, 15% have a hit.
Note to self: values exactly at 10% are label 1. So growth inhibition at or above 10% is label 1, below is label 0.

molecule	class name
CCC(/C=C/c1ccccc1)=N\Nc1ccc(Cl)cc1	label 0
CC(=O)CCC1=C(C)C(=O)C(=O)C(C)=C1O	label 0
COc1cc([N+](=O)[O-])c2ncccc2c1Br	label 0
COC1/C=C\C=C(/C)C(=O)NC2=CC(=O)C(=O)C(=C2O)CC(C)CC(OC)C(O)C(C)/C=C(\C)C1OC(N)=O (configuration not stated)	label 1
CCOC(=O)/C(=C\c1cccc(C)c1)C(C)=O	label 1
COc1ccc2cc3c4cc5c(cc4cc[n+]3cc2c1OC)OCO5	label 1
NC(CCCCCCCCCCCCC(N)C(=O)c1ccccc1)C(=O)c1ccccc1 (configuration not stated)	label 0
O=C1C[C@H]2[C@H](c3ccc(Br)cc3)[C@H]3C(=O)c4ccccc4NC(=O)[C@@H]3[C@@]2(O)c2ccccc2N1	label 1
N#Cc1nc(Nc2ccc(Cl)cc2)sc1N	label 1
CCOC(=O)CC1(C)/C(=N\Nc2ccc([N+](=O)[O-])cc2[N+](=O)[O-])CCC2C1CCC1(C)C(C(C)CCCC(C)C)CCC21 (configuration not stated)	label 0
CC(C)(N=Nc1ccc(Cl)cc1)[N+](=O)[O-]	label 1
Fc1cc(F)c(F)c(S)c1F	label 0
CNCC(C)CNC	label 0
O=[N+]([O-])[O][Sn]([O][Sn]([O][N+](=O)[O-])([c]1ccccc1)[c]1ccccc1)([c]1ccccc1)[c]1ccccc1	label 0
CCC[CH2][Sn]([CH2]CCC)([CH2]CCC)/[C](=C/[Si](C)(C)c1ccccc1)c1ccc2c(c1)OCO2	label 1
CNC(=O)OCc1c2ccncc2c(C)c2c1[nH]c1ccccc12	label 1
Cc1c2cc[n+](CCO)cc2c(C)c2c1[nH]c1ccc(O)cc12	label 1
c1ccc([P+](CCN2Cc3ccccc3C2)(c2ccccc2)c2ccccc2)cc1	label 1
COc1cc(C(=O)C=O)cc(OC)c1OC	label 0
O=C(C#Cc1ccccc1)/C=C/c1ccccc1	label 0
CCCCCCCCSC1=C(Cl)C(=O)C(OC)=C(OC)C1=O	label 0
O=[N+]([O-])c1cn[n+]([O-])c2ccccc12	label 0
CCC(=O)Nc1ccc(N=NN(C)C)cc1	label 0
CC1=NN(C(=O)c2ccccc2O)C(=O)/C1=C/c1ccco1	label 1
CCOC(=O)C(Cc1c2ccccc2cc2ccccc12)(NC(C)=O)C(=O)OCC	label 0
CCCCCCNCCCNc1c2ccccc2nc2cccc([N+](=O)[O-])c12	label 0
CC1(C)CC(=O)C(C(=O)Nc2cccs2)=C(O)C1	label 0

* * *

# key: entry, value: growth inhibition
Experiment: NCI Yeast Anticancer Drug Screen. Data for the wt2 strain (AID 169);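 further: 0% = growth of vehicle-treated yeast cultures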
Conditions: S. cerevisiae wt2 strain growth inhibition; at 1.2 µM; stronger effect = higher value
Protocol: Growth inhibition of yeast strains with defined genetic alterations is measured as a screen for potential anti-cancer activity. Selected strains with alterations in DNA damage repair or cell cycle control were exposed to compounds and growth inhibition was measured relative to vehicle treated controls. The strain used in this assay is wt2
Compounds without any hit were thinned out: in the full panel of roughly 79,000, 15% have a hit.

compound	growth inhibition / %
NC(CS)C(=O)NCCNc1ccc(NCCNC(=O)C(N)CS)c2c1C(=O)c1c(O)ccc(O)c1C2=O (centres undefined)	-19
Cc1cccc2c(NCCCN(C)C)c3c([N+](=O)[O-])ccc(C)c3nc12	4
O=C1Oc2ccccc2C(=O)/C1=C/N1C(=O)N/C(=C\c2ccccc2Br)C1=O	1
O=c1c2ccccc2nc(-c2ccc(Cl)cc2)n1O	92

* * *

Experiment: NCI Yeast Anticancer Drug Screen. Data for the mec2-1 strain (AID 157)
Conditions: S. cerevisiae mec2-1 strain, at 50.0 µM
The panel holds about 79,000 compounds, 15% with a hit somewhere; the sample as a whole holds those more often. The source made the active and inactive calls. No stated cut-off is given here; in the data, active means growth inhibition above about 70%; inactive means the rest. Residues, ends and D or L forms follow the SMILES beside them. *: point of attachment. Fmoc = O=C(OCC1c2ccccc2-c2ccccc21)*; Boc = CC(C)(C)OC(=O)*
Outcomes: active, inactive

compound	class name
OC(Cc1cccc2ccccc12)CN1CCC(c2ccccc2)CC1 (stereo not given)	inactive
CCCCCCNCCCNc1c2ccccc2nc2cccc([N+](=O)[O-])c12	active
O=[N+]([O-])c1ccc(S(=O)(=O)Cc2ccccc2)c([N+](=O)[O-])c1	active
COC1/C=C\C=C(/C)C(=O)NC2=CC(=O)C(=O)C(=C2O)CC(C)CC(OC)C(O)C(C)/C=C(\C)C1OC(N)=O (stereo not given)	active
CC(C)OP(=O)(OC(C)C)/C(Cl)=N/Nc1ccc([N+](=O)[O-])cc1	active
COC(=O)c1cnc(Cl)c([N+](=O)[O-])c1	active
CC1(C)CC(=O)C(/C=N/c2nc(-c3ccc(Br)cc3)cs2)=C(O)C1	active
CC12CCC(CC(=O)/C1=C(/Br)I)C2(C)C (stereo not given)	active
CCN(CC)C(=S)N/N=C(\C)c1ccccc1O	active
CCCCS(=O)(=O)Nc1ccc(Nc2c3ccccc3nc3ccccc23)c(OC)c1	inactive
COc1cc2c(cc1O)[C@H](C)C(c1ccccc1OC)O2 (stereo not given in full)	inactive
CC1(C)CC(=O)C(C(=O)Nc2cccs2)=C(O)C1	active
N#CCC(=O)N/N=C(\c1ccccc1)C(c1ccccc1)C1(O)C(=O)Nc2c(Cl)ccc(Cl)c21 (stereo not given)	inactive
O=C1Nc2ccc(Br)cc2C1=Nc1ccc(Cl)cc1	inactive
Nc1cccc(-c2cc[cH-]c2)c1.[Fe+2].c1cc[cH-]c1	inactive
O=C(NCCNCCNC(=O)c1cc(-c2ccccc2)nc2ccccc12)c1cc(-c2ccccc2)nc2ccccc12	active
CCCCCc1c(CCCC)c(=O)[nH]c2cc(CNCC(OC)OC)ccc12	active
CCN1CCC(O)(c2ccc(Oc3ccc(C)cc3)cc2)C(C(=O)c2ccc(Oc3ccc(C)cc3)cc2)C1 (stereo not given)	active
C/C(=N\Sc1ccccc1)c1ccccc1O	inactive
CCOP(=O)(OCC)/C(C#N)=C\c1cccc2ccccc12	active
Cc1cc(C)c(S(=O)(=O)c2ccc(Cl)cc2)c(C)c1	inactive
COC(=O)C(=O)c1c(-c2ccc(Cl)c(Cl)c2)[nH]c2[nH]n(-c3ccccc3)c(=O)c2c1=O	active
c1ccc([P+](CCN2Cc3ccccc3C2)(c2ccccc2)c2ccccc2)cc1	active
CC(=O)O[C@H]1CC[C@@]2(C)C(=CC[C@@H]3C2CC[C@]2(C)C(=O)NC(=O)CC32)C1 (stereo not given in full)	inactive
OC1(C#CI)CCCCC1	active
NC(CCCCCCCCCCCCC(N)C(=O)c1ccccc1)C(=O)c1ccccc1 (stereo not given)	inactive
CSC(=S)N/N=C/c1ccccc1	active
CCS(=O)(=O)Nc1ccc(Nc2c3ccccc3nc3ccccc23)c(OC)c1	inactive
COc1ccc2nc3cccc([N+](=O)[O-])c3c(NCCNCCN(C)C)c2c1	active
ClCCCOc1c(Cl)cc(Cl)cc1Cl	inactive
COC(=N)c1ccc(O)c(C)c1	inactive
C=COC(=O)N[C@H]1CCc2cc(OC)c(OC)c(OC)c2-c2ccc(SC)c(=O)cc21	inactive
CC(C)(C)OC(=O)NCCCCC(NC(=O)C(Cc1c[nH]c2ccccc12)NC(=O)OCC1c2ccccc2-c2ccccc21)C(=O)O (stereo not given) (Fmoc-Trp-Lys(Boc)-OH; configuration not given here)	inactive
CC(C)CCC[C@@H](C)[C@H]1CC[C@H]2[C@@H]3CC[C@H]4C[C@H](N)CC[C@]4(C)[C@H]3CC[C@]12C	inactive
CCOC(=O)/C(=C\c1ccc(F)cc1)C(C)=O	active
